FYI, the data here is from ChEMBL document CHEMBL1944599.

Target: Beta-1 adrenergic receptor (Homo sapiens)
Sequence (P08588 whole entry): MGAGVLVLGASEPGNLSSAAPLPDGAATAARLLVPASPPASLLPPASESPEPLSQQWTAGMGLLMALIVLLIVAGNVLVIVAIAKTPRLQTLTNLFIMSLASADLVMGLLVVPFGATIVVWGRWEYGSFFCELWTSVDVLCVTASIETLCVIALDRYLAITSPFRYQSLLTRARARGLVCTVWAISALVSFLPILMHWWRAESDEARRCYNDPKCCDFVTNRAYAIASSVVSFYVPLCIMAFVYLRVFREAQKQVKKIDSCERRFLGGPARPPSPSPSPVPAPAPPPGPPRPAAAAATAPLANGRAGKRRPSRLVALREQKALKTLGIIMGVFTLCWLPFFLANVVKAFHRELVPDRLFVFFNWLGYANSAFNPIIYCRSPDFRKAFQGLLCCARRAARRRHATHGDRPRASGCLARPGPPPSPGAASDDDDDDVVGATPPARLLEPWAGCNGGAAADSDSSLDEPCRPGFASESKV
Experiment: Displacement of radiolabeled iodocyanopindolol from beta1 adrenoceptor
measured.metric: IC50 (nM)

A: COCCNCc1cccc(CCNC[C@H](O)c2ccc(O)c3[nH]c(=O)sc23)c1
B: O=c1[nH]c2c(O)ccc([C@@H](O)CNCCc3ccc(CNCCc4c(Cl)cccc4Cl)cc3)c2s1
Of the pair A and B , name the member with the lesser recorded IC50. // return label of chosen record
A
(A: 158 nM, B: 398 nM)

a: COc1ccccc1CNCc1ccc(CCNC[C@H](O)c2ccc(O)c3[nH]c(=O)sc23)cc1
b: COc1cccc(CNCc2cccc(CCNC[C@H](O)c3ccc(O)c4[nH]c(=O)sc34)c2)c1
c: O=c1[nH]c2c(O)ccc([C@@H](O)CNCCOc3cccc(CNCCc4ccccc4F)c3)c2s1
Please order the records by their reported IC50, lowest number first. Could you list the labels in the order requested?
b, c, a
